# System: U251 CNS
Outcome codes: active, inactive

>>> df
                                   compound  study_system  group_label
0  Fc1cc(F)c(COc2cc(Cn3cnc4c(Cl)nc(Cl)nc43)ccc2C23CC4CC(CC(C4)C2)C3)cc1F      U251 CNS     inactive
1  NCCCC[C@@H]1NC(=O)[C@H]2CCCN2C(=O)[C@H](Cc2ccccc2)NC(=O)[C@H](Cc2ccccc2)CNC1=O      U251 CNS     inactive
2         COc1cc[nH]c1/C=C1\C(=O)Nc2ccccc21      U251 CNS     inactive
3  CC(C)c1ccc(C(=O)Nc2sc3c(c2C(N)=O)CCC(=O)C3)cc1      U251 CNS       active
4  CC1CN1CC(O)C(O)CN1CC1C (stereo not drawn)      U251 CNS     inactive
5  CC(=O)[CH-]C(=O)c1ccccc1.CC(=O)[CH-]C(=O)c1ccccc1.O=C([O-])c1ccc([O-])cc1.O=C([O-])c1ccc([O-])cc1.[Ti+4]      U251 CNS     inactive
6  Cc1cn2c(/C=C3/C(=O)N(C)c4ccccc43)c(C)nc2s1      U251 CNS     inactive
7           O=C(N/N=C/c1cccc(O)c1O)c1ccccc1      U251 CNS     inactive

----------
# Tested on: SK-MEL-2 melanoma
Outcome codes: active, inactive

                                   compound  group_label
0  COc1ccc2c(c1)C(=O)c1c-2n(CCCn2ccnc2)c(=O)c2ccccc12     inactive
1  CCOC(=O)c1c(CN2CCN(c3ccccc3)CC2)n(-c2ccccc2)c2cc(Br)c(O)cc12     inactive
2  CCC1(O)C(=O)OCc2c1cc1n(c2=O)Cc2cc3ccc(C=O)cc3nc2-1 (configuration not stated)     inactive
3   CCN(CC)c1ccc(C(=N)c2ccc(N(CC)CC)cc2)cc1       active
4  CC1CN1CC(O)C(O)CN1CC1C (configuration not stated)     inactive
5  Fc1cc(F)c(COc2cc(Cn3cnc4c(Cl)nc(Cl)nc43)ccc2C23CC4CC(CC(C4)C2)C3)cc1F     inactive
6  CCS(=O)(=O)c1ccc(OC)c(Nc2ncc(-c3cccc(OC)c3)o2)c1     inactive

----------
Reported TGI values for the following molecules.
# System: NCI-H522 lung
# method: NCI tumour cell line growth inhibition, 48 h
quantity measured: TGI

In [3]: df
Out[3]:
                                   molecule  data_value
0  O=C1c2ccccc2C(=O)C2NC(CCCCCSSCCCCCC3=NC4C(=O)c5ccccc5C(=O)C4N3)=NC12 (stereo not given)    > 100 µM
1  CC(C)c1ccc(C(=O)Nc2sc3c(c2C(N)=O)CCC(=O)C3)cc1     1.56 µM
2                   NCc1ccc(-c2ccc(CN)s2)s1    > 100 µM
3  CN(CCC(=O)N1CC(CCl)c2ccc([N+](=O)[O-])cc21)CCC(=O)N1CC(CCl)c2ccc([N+](=O)[O-])cc21 (stereo not given)     21.7 µM
4  Cc1ccc(Nc2nc3c(s2)C(=O)c2ccccc2C3=O)c(C)c1     4.66 µM

----------
# Test system: HT29 colon
# method: NCI tumour cell line growth inhibition, 48 h; in the data active = GI50 below about 0.43 µM; inactive = the rest
Outcome codes: T (active), F (inactive)

                                   compound  group_label
0   CCN(CC)c1ccc(C(=N)c2ccc(N(CC)CC)cc2)cc1            T
1  Clc1nc(Cl)c2ncn(Cc3cccc(COc4cccc(OCc5cccc(Cn6cnc7c(Cl)nc(Cl)nc76)c5)c4)c3)c2n1            F
2            CCN(CC)c1sc(N(CC)CC)c2c1SSSSS2            F
3  COc1ccc(C(=O)COc2cccc(/C=C3\COc4ccc5ccccc5c4C3=O)c2)cc1            F
4  COc1ccc(C(=O)c2cc(C)c(OC)c(C)c2)c(OC)c1N(C(=O)C(Cl)Cl)C(=O)C(Cl)Cl            T
5  N.N.N.N.N.O=C([O-])c1nn[n-]n1.[Cl-].[Co+3]            F
6  Fc1cc(F)c(COc2cc(Cn3cnc4c(Cl)nc(Cl)nc43)ccc2C23CC4CC(CC(C4)C2)C3)cc1F            F
7  NC(N)=NCCCn1c2c(c3ccccc3c1=O)C(=O)c1ccccc1-2            F
8  CCC[CH2][Sn]1([CH2]CCC)[O]C(=O)C(C(C)C)N=Cc2ccccc2[O]1 (stereo not given)            F
9           O=C(N/N=C/c1cccc(O)c1O)c1ccccc1            F

----------
# Test system: UACC-257 melanoma
# method: NCI tumour cell line growth inhibition, 48 h
quantity measured: TGI (µM)

                                   compound  qualifier  data_value
0  COc1cc(C(=O)NNC(=O)c2cc(Br)ccc2NC(=O)c2cccs2)cc(OC)c1OC          =        56.9
1   CC(C)(C)OC(=O)Cc1ccc2c(ccn2Cc2ccccc2)c1          >         100
2  C=C(C)C1CC=C(C)C(=O)C1 (stereo not given)          >         100
3  COc1ccc2c(c1)C=C([N+](=O)[O-])C(C1OC(C)(C)OC1C1COC(C)(C)O1)O2 (stereo not given)          =        6.16
4        Cc1ccc(C(=NN=C(N)N)c2ccc(C)cc2)cc1          =        2.07
5  COc1cc(OC)c(/C=C/C(=O)c2c(OC)cccc2OC)c(OC)c1          >         100
6  COc1cc(C2=NN(C(C)=O)C(c3ccc(OC(C)=O)cc3OC(C)=O)O2)c(OC(C)=O)c2ccccc12 (stereo not given)          =        6.86
7  CN(C)CCNC(=O)c1cccc(C(=O)Nc2ccccc2)c1[N+](=O)[O-]          >         100
8  N#Cc1nc(C2OC(COC(=O)c3ccccc3)C(OC(=O)c3ccccc3)C2OC(=O)c2ccccc2)oc1N (stereo not given)          >         100
9  COc1nn(Cc2ccccn2)c2ccc([N+](=O)[O-])cc12          >         100

----------
# Tested on: OVCAR-3 ovarian
# method: NCI tumour cell line growth inhibition, 48 h
quantity measured: TGI (µM)

>>> df
                                   molecule  qualifier  data_value
0  CN(C)P(=O)(/C(N)=N/Nc1ccc([N+](=O)[O-])cc1)N(C)C          >         100
1  CCN(CCCl)c1cc(CN(C)C)cc(NC(=O)c2ccc(C(=O)Nc3cc(CN(C)C)cc(N(CC)CCCl)c3)cc2)c1          =        2.66
2  COc1cc(NC(=O)c2cc(O)c(CC=C(C)C)c(O)c2)cc2c1O[C@]1(C)CC[C@@H](O)C(C)(C)[C@H]1C2          =        83.5
3                Cn1cc(C(=O)c2ccccc2)ccc1=O          >         100
4  Cc1ccccc1N(CCC#N)C1=NN(C(=O)CC(=O)Nc2ccccc2)C(c2ccccc2)C1 (stereo not given)          >         100
5  CC(C)C[C@H]1[C@@H](OCc2ccccc2)COS(=O)(=O)N1[C@H](C)c1ccccc1          >         100
6            Cc1cccc2nc(-c3ccccc3)cc(=O)n12          >         100
7  CCN(CC)CCCC(C)Nc1c(C)cnc2cc(Cl)c(C)cc12 (stereo not given)          =        27.4
8  NC1=NN(c2ccccc2)C(=O)C1C(=O)CCC(=O)Nc1cccc(C(F)(F)F)c1 (stereo not given)          >         100
9  O=C(c1cccc(O)c1O)c1cn(Cc2ccc(F)cc2)c2cccc(O)c12          =        18.1

----------
# System: MCF7 breast
# method: NCI tumour cell line growth inhibition, 48 h

compound	TGI
O=C(N/N=C/c1cccc(O)c1O)c1ccccc1	> 100 µM
CCc1[nH]c(=O)nc(N)c1-c1ccc(N2CCCCC2)c([N+](=O)[O-])c1	> 100 µM
CC/C=C\C[C@@H]1C/C=C2/C(=O)C=C[C@H]2C/C=C\CCCC(=O)O1	2.12 µM
Cc1cc(SCC(=O)c2ccccc2)nc2ccccc12	> 100 µM
Cc1ccc(/C(=C/C=C(C#N)C#N)Sc2ccc(Cl)cc2)cc1	> 100 µM
CC(=O)OCC(OC(C)=O)C1C[C@H]2O[C@@H]3[C@H](C[C@H]2O1)O[C@@]1(C[C@@H]3C)C[C@H](C)[C@@H]2O[C@]3(C[C@@H]2O1)C[C@H]1O[C@H]2[C@H](C)[C@H]4OC(=O)C[C@H]5CC[C@@H]6OC7[C@H]8O[C@]9(CC[C@H]%10CC(=O)[C@H](CC[C@H]%11C[C@@H](C)C(=O)C(C[C@@H]4O[C@H]2C[C@H]1O3)O%11)O%10)CC8O[C@@H]7[C@@H](O9)[C@H]6O5 (some centres not stated)	> 1 µM
COc1ccc(CNc2ccn(C3OC(CO)C(O)C3O)c(=O)n2)cc1 (configuration not stated)	> 100 µM
